assay comment: Saline solubility at 1.00 mg/mL and 0.50 mg/mL (with pH by indicator paper)
Type: physicochemical
condition: saline or isotonic, thermodynamic from solid, 1.00 mg/mL as hydroxamate 1, shaken 1 hour, centrifuged, soluble = no precipitate formed, read-out: Soluble at 1.00 mg/mL of MGCD290 (Y/N)
reported property: solubility at 1 h

| compound | solubility at 1 h |
| --- | --- |
| CC(=O)OCC(=O)NC[C@H](NC(=O)COC(C)=O)C(=O)NCCC(=O)ONC(=O)Cc1ccc(CCCCc2ccccc2)cc1 [Compound 146] | < 1000 µg/mL |
| COCCOCCOCC(=O)NCCCC[C@H](NC(=O)COCCOCCOC)C(=O)N(C)CCCC(=O)ONC(=O)Cc1ccc(CCCCc2ccccc2)cc1 [Compound 64] | > 1000 µg/mL |
| COCCOCCOCCOCCOCCOCC(=O)N1CCC(CCC(=O)ONC(=O)Cc2ccc(CCCCc3ccccc3)cc2)CC1 [Compound 111] | > 1000 µg/mL |
| COCCOCCOCCOCCOCC(=O)N1CCC(CCC(=O)ONC(=O)Cc2ccc(CCCCc3ccccc3)cc2)CC1 [Compound 113] | < 1000 µg/mL |
| COCCOCCOCCOCCOCCOCC(=O)N1CCC(OCC(=O)ONC(=O)Cc2ccc(CCCCc3ccccc3)cc2)CC1 [Compound 127] | < 1000 µg/mL |

Okay, next one:
Entry O=C(Cc1ccc(CCCCc2ccccc2)cc1)NOC(=O)CC1CC1 [Compound 52C] ; solubility at 1 h = < 1000 µg/mL

Data origin: patent US20150203517A1
